Kindly supply the reported IC50 values for the records listed here.
target: D3 receptors (Homo sapiens); construct: purchased RBI; host or cells: mouse fibroblasts (CCL 1,3); experiment: biochemical; type: binding; conditions: [3H]YM-0951 0.1 nM, membrane from mouse fibroblasts (CCL 1,3), 15 min, 37° C., pH 7.4; read-out: IC50 (M) D3
Sequence (P35462 whole entry): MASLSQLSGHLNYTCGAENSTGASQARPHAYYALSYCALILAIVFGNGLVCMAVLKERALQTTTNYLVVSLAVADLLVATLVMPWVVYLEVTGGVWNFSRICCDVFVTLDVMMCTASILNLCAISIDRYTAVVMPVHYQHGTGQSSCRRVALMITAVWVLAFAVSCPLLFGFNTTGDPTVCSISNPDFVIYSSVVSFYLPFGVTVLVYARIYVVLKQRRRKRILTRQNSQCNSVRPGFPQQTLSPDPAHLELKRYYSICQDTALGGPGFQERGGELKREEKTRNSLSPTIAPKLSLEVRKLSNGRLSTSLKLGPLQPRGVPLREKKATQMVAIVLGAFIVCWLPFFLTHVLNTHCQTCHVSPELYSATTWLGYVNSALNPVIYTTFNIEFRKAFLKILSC
Counter-ions that a name gives are not always drawn.
Give the value, in units of M, as a plain number.

Reported IC50 of Cl.O=C(c1ccc(F)cc1)C1CCN(CCCOc2ccc3c(=O)ccoc3c2)CC1 [Example 1, hydrochloride] : 6.88e-08

Reported IC50 of Cc1cc(=O)c2ccc(OCCCN3CCC(C(=O)c4ccc(F)cc4)CC3)cc2o1 [Example 2, hydrochloride] : 8.55e-07
